Test system: ST cells
Experiment: Cytotoxicity MTT assay, ST cells
Assay type: cell-based, porcine
Conditions: read-out: CC50 (50% cytotoxicity), ST, 3 days, ± S.D.
observed property: CC50 (µM)
Please respond with the number in µM and leave the unit unwritten.

Noted CC50 for CN[C@@H]1[C@H](O[C@@H]2OC[C@@H](O)[C@H](O)[C@H]2O)[C@@H](O)[C@H](O[C@H]2c3cc(C)c(C(=O)N[C@H](C)C(=O)O)c(O)c3-c3c(cc4c(c3O)C(=O)c3cc(OC)cc(O)c3C4=O)[C@@H]2O)O[C@@H]1C [PRM-A, pradimicin-A, reference compound] , tested on ST cells: 121
